Molecular target: T1, B3GNT2 (Homo sapiens, UniProt Q9NY97)
T1 construct: The respective ORFs of candidate genes [CD274 (NM_014143), MCL1 (NM_021960), JUNB (NM_002229), and B3GNT2 (NM_006577)] were synthesized; expressed in transfected cells; host or cells: A375 melanoma cells (lentiviral ORF overexpression)
T1 sequence (Q9NY97 1-397): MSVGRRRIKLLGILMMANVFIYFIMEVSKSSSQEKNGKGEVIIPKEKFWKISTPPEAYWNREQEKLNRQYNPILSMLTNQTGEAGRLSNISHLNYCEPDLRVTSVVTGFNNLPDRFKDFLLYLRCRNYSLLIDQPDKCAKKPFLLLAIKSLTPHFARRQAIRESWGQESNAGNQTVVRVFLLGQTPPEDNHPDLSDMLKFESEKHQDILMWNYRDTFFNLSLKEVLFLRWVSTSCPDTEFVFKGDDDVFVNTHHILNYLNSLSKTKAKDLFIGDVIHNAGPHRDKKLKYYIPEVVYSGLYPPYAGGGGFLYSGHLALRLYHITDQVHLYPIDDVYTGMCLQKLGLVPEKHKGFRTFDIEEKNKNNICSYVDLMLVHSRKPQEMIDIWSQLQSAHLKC
Assay: Co-IP of FLAG-tagged B3GNT2 followed by mass spectrometry
Type: cell-based
Conditions: Co-IP with IgG control antibody, N-terminally FLAG-tagged B3GNT2; mass spectrometry count, unit not given
MEASURE: N-term IgG
Numbers only.

Which N-term IgG value belongs to SLC25A3 (protein) AVEEQYSCDYGSGRFFILCGLGGIISCGTTHTALVPLDLVKCRMQVDPQKYKGIFNGFSVTLKEDGVRGLAKGWAPTFLGYSMQGLCKFGFYEVFKVLYSNMLGEENTYLWRTSLYLAASASAEFFADIALAPMEAAKVRIQTQPGYANTLRDAAPKMYKEEGLKAFYKGVAPLWMRQIPYTMMKFACFERTVEALYKFVVPKPRSECSKPEQLVVTFVAGYIAGVFCAIVSHPADSVVSVLNKEKGSSASLVLKRLGFKGVWKGLFARIIMIGTLTALQWFIYDSVKVYFRLPRPPPPEMPESLKKKLGLTQ ?
0
